These data points were gathered from ChEMBL document CHEMBL1127612.

- Test system: Mus musculus
- method-description: Tested for biodistribution of radioactivity after 24 hr of intravenous injection in mice blood
- Assay type: ADME, organism-based
- recorded-conditions: in vivo
quantity-kind: Dose/g (%)
Quick note: give the figure in %, leave out the unit.

(Q) # return recorded Dose/g for input NCCCCC(N)C(=O)NC(=O)c1cccc(I)c1 (centres undefined)
(A) 14.39

(Q) Please indicate Dose/g recorded for N[C@@H](CSC1CC(=O)N(CCOC(=O)CNC(=O)c2cccc(I)c2)C1=O)C(=O)O (some centres undefined)
(A) 9.64

(Q) Assign Dose/g to the following record: CN[C@@H](CSC1CC(=O)N(CCOC(=O)CNC(=O)c2cccc(I)c2)C1=O)C(=O)O (some centres undefined)
(A) 0.02

(Q) Give the reported Dose/g for this compound. CCc1ccc(O)c(I)c1
(A) 0.12

* * *

- System: Mus musculus
- method-description: Tested for biodistribution of radioactivity after 24 hr of intravenous injection in mice spleen
- Format: ADME, organism-based
- recorded-conditions: in vivo
Record form. Attribute: Dose/organ. Fill in for each entry.
Report field: quantity (unit follows the number).

(Q) Name the recorded Dose/organ of the item CCc1ccc(O)c(I)c1 in your answer.
(A) 0.02%

(Q) Provide Dose/organ value for the following molecule: CN[C@@H](CCCCN)C(=O)NC(=O)c1cccc(I)c1
(A) 0.02%

(Q) Quick one: give measured Dose/organ for NCCCCC(N)C(=O)NC(=O)c1cccc(I)c1 (stereo not given)
(A) 3.37%

(Q) Query Dose/organ for CN[C@@H](CSC1CC(=O)N(CCOC(=O)CNC(=O)c2cccc(I)c2)C1=O)C(=O)O (stereo not given in full)
(A) 0.04%

(Q) Answer with the recorded Dose/organ for the molecule listed here: N[C@@H](CSC1CC(=O)N(CCOC(=O)CNC(=O)c2cccc(I)c2)C1=O)C(=O)O (stereo not given in full)
(A) 1.41%

* * *

Exercise: for every item that follows, state its recorded Dose/organ.
- Tested on: Mus musculus
- method-description: Tested for biodistribution of radioactivity after 1 hr of intravenous injection in mice neck
- Format: ADME, organism-based
- recorded-conditions: in vivo
Number in %, nothing else.

(Q) For the compound CN[C@@H](CCCCN)C(=O)NC(=O)c1cccc(I)c1 , report Dose/organ.
(A) 0.03

(Q) Note down Dose/organ recorded for N[C@@H](CSC1CC(=O)N(CCOC(=O)CNC(=O)c2cccc(I)c2)C1=O)C(=O)O (stereo not given in full)
(A) 0.75

(Q) Give Dose/organ for CN[C@@H](CSC1CC(=O)N(CCOC(=O)CNC(=O)c2cccc(I)c2)C1=O)C(=O)O (stereo not given in full)
(A) 0.06

(Q) Item CCc1ccc(O)c(I)c1 : provide Dose/organ
(A) 0.34

(Q) Return value of Dose/organ for input NCCCCC(N)C(=O)NC(=O)c1cccc(I)c1 (stereo not given) , no commentary.
(A) 0.83

* * *

- System: Mus musculus
- method-description: Tested for biodistribution of radioactivity after 3h of intravenous injection in mice spleen
- Type: ADME, organism-based
- recorded-conditions: in vivo
Would you mind telling me the reported Dose/organ of each entry?
API: value field is a number in %; no unit string.

(Q) Please look at this compound and report its Dose/organ: CN[C@@H](CSC1CC(=O)N(CCOC(=O)CNC(=O)c2cccc(I)c2)C1=O)C(=O)O (stereo not given in full)
(A) 0.07

(Q) For the compound NCCCCC(N)C(=O)NC(=O)c1cccc(I)c1 (stereo not given) , give its reported Dose/organ.
(A) 5.7

(Q) Recall and state the measured Dose/organ for CN[C@@H](CCCCN)C(=O)NC(=O)c1cccc(I)c1 .
(A) 0.01

(Q) // Input: N[C@@H](CSC1CC(=O)N(CCOC(=O)CNC(=O)c2cccc(I)c2)C1=O)C(=O)O (stereo not given in full) . Output its Dose/organ only.
(A) 3.67

(Q) Please report Dose/organ for the following compound: CCc1ccc(O)c(I)c1
(A) 0.1

* * *

- System: Mus musculus
- method-description: Tested for biodistribution of radioactivity after 24 hr of intravenous injection in mice feces
- Assay type: ADME, organism-based
- recorded-conditions: in vivo
quantity-kind: Dose/organ (%)
Numbers only; they are read as %.

(Q) Check the records and state Dose/organ for N[C@@H](CSC1CC(=O)N(CCOC(=O)CNC(=O)c2cccc(I)c2)C1=O)C(=O)O (stereo not given in full)
(A) 0.89

(Q) For the compound NCCCCC(N)C(=O)NC(=O)c1cccc(I)c1 (stereo not given) , report Dose/organ.
(A) 0.55

(Q) Name the recorded Dose/organ of the compound listed here: CN[C@@H](CSC1CC(=O)N(CCOC(=O)CNC(=O)c2cccc(I)c2)C1=O)C(=O)O (stereo not given in full)
(A) 3.52

(Q) // fetch Dose/organ given entry CCc1ccc(O)c(I)c1
(A) 3.22

(Q) Look up and state reported Dose/organ for CN[C@@H](CCCCN)C(=O)NC(=O)c1cccc(I)c1
(A) 3.26

* * *

- Tested on: Mus musculus
- method-description: Tested for biodistribution of radioactivity after 1 hr of intravenous injection in mice kidneys
- Assay type: ADME, organism-based, Kidney
- recorded-conditions: in vivo
Please note: 1 applies when Dose/organ is 3% or greater, and 0 applies otherwise.

(Q) Evaluate CCc1ccc(O)c(I)c1 : Dose/organ at minimum 3%?
(A) 0

(Q) Does CN[C@@H](CCCCN)C(=O)NC(=O)c1cccc(I)c1 have a reported Dose/organ of at least 3%?
(A) 0

(Q) State whether the measured Dose/organ reaches 3%, counting equality as reaching it, for N[C@@H](CSC1CC(=O)N(CCOC(=O)CNC(=O)c2cccc(I)c2)C1=O)C(=O)O (stereo not given in full)
(A) 1

(Q) Determine whether measured Dose/organ meets or exceeds 3% for CN[C@@H](CSC1CC(=O)N(CCOC(=O)CNC(=O)c2cccc(I)c2)C1=O)C(=O)O (stereo not given in full)
(A) 0

(Q) Threshold query (Dose/organ >= 3%) on NCCCCC(N)C(=O)NC(=O)c1cccc(I)c1 (stereo not given)
(A) 1

* * *

Exercise: for every item that follows, state its recorded Dose/organ.
- Tested on: Mus musculus
- method-description: Tested for biodistribution of radioactivity after 3h of intravenous injection in mice neck
- Type: ADME, organism-based
- recorded-conditions: in vivo
// note: answer is a bare numeric in %

(Q) Give Dose/organ for the following compound: N[C@@H](CSC1CC(=O)N(CCOC(=O)CNC(=O)c2cccc(I)c2)C1=O)C(=O)O (stereo not given in full)
(A) 0.51

(Q) Respond only with Dose/organ recorded for CN[C@@H](CCCCN)C(=O)NC(=O)c1cccc(I)c1
(A) 0.02

(Q) Tell me measured Dose/organ for NCCCCC(N)C(=O)NC(=O)c1cccc(I)c1 (stereo not given) please.
(A) 0.72

(Q) Return reported Dose/organ. Input compound: CN[C@@H](CSC1CC(=O)N(CCOC(=O)CNC(=O)c2cccc(I)c2)C1=O)C(=O)O (stereo not given in full)
(A) 0.02

(Q) Name the recorded Dose/organ of the compound listed here: CCc1ccc(O)c(I)c1
(A) 0.25

* * *

- Tested on: Mus musculus
- method-description: Tested for biodistribution of radioactivity after 24 hr of intravenous injection in mice stomach
- Format: ADME, organism-based
- recorded-conditions: in vivo
quantity-kind: Dose/organ
Dear colleague, please send the value followed by its unit.

(Q) Please list Dose/organ recorded for the compound CN[C@@H](CSC1CC(=O)N(CCOC(=O)CNC(=O)c2cccc(I)c2)C1=O)C(=O)O (stereo not given in full)
(A) 0.05%

(Q) // Input: CCc1ccc(O)c(I)c1 . Output its Dose/organ only.
(A) 0.11%

(Q) Give the reported Dose/organ for this compound. N[C@@H](CSC1CC(=O)N(CCOC(=O)CNC(=O)c2cccc(I)c2)C1=O)C(=O)O (stereo not given in full)
(A) 0.28%

(Q) Supply recorded Dose/organ for CN[C@@H](CCCCN)C(=O)NC(=O)c1cccc(I)c1 here.
(A) 0.04%

(Q) Identify measured Dose/organ associated with NCCCCC(N)C(=O)NC(=O)c1cccc(I)c1 (stereo not given)
(A) 0.49%

* * *

Provide the reported Dose/organ of each item.
- Tested on: Mus musculus
- method-description: Tested for biodistribution of radioactivity after 3h of intravenous injection in mice stomach
- Type: ADME, organism-based
- recorded-conditions: in vivo
Answer with a number only, understood to be in %.

(Q) Tell me Dose/organ reported for CCc1ccc(O)c(I)c1
(A) 17.5

(Q) Supply measured Dose/organ of N[C@@H](CSC1CC(=O)N(CCOC(=O)CNC(=O)c2cccc(I)c2)C1=O)C(=O)O (stereo not given in full) in your reply.
(A) 1.04

(Q) Return Dose/organ (reported value) for this compound: CN[C@@H](CSC1CC(=O)N(CCOC(=O)CNC(=O)c2cccc(I)c2)C1=O)C(=O)O (stereo not given in full)
(A) 0.52

(Q) Tell me Dose/organ reported for CN[C@@H](CCCCN)C(=O)NC(=O)c1cccc(I)c1
(A) 0.36

(Q) In one line, give reported Dose/organ of the entry NCCCCC(N)C(=O)NC(=O)c1cccc(I)c1 (stereo not given) .
(A) 1.31
